# glycan array binding signal (z-score) per entry
system_tested: Fuc(a1-4)GlcNAc
experimental_protocol: glycan array binding signal (z-score within array); higher = stronger binding
condition_parameters: glycan notation: IUPAC condensed, linker removed
Many of the other results were omitted from the sample, so the strongest signals are more common in it than they were.
Could you respond with only the numeric value?

BTL (Bryothamnion triquetrum) (protein) ADPICGSSGYSCTTPAILTPKSPGSFPSGYSKVIVTGVGGSYSVYIHRPDGFKVYKASEGGCASFGSYSGGGNSEVGKYGSGGTVVAVACK | -0.199

[in] Look up glycan array binding signal (z-score) for this binder: DBA (Dolichos biflorus) (protein) ANIQSFSFKNFNSPSFILQGDATVSSGKLQLTKVKENGFPLRFPSGRAFYSSPIQIYDKFTGAVASWATSFTVKISAPSKASFADGIAFALVPVGSEPRRNGGYLGVFDSDVYNNSAQTVAVEFDTLSNSGWDPSMKHIGIDVNSIKSIATVSWDLANGENAEILITYNAATSLLVVSLVHPSRRTSYILSERVDITNELPEYVGVGFSATTGLSEGYIETHDVLSWSFASRLPDDSTAEPLDLARYLVRNVL
[out] -0.115

[in] Another: R410P1E11 (Tachypleus tridentatus), TAL2_TACTR (protein) MEKGTPPTHDSDNWMGRAKEIGNGGWDQFQFLFFDPNGYLYAVSNDKLYKASPPQSDTDNWIARATEIGSGGWSGFKFLFFHPNGYLYAVRGQRFYKALPPVSNQD
[out] -0.369
